System: S. pneumoniae D39V
test_summary: Bliss interaction score (quartile over a dose matrix) (fitness difference); higher = more antagonism (negative = synergy);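 further: first quartile when negative (synergy) and third quartile when positive (antagonism)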
endpoint_label: Bliss interaction score

molecule: CCC[C@@H]1C[C@@H](C(=O)N[C@@H]([C@H]2O[C@H](SC)[C@H](O)[C@@H](O)[C@H]2O)[C@@H](C)O)N(C)C1 [Lincomycin] + CN[C@H](CC(C)C)C(=O)N[C@H]1C(=O)N[C@@H](CC(N)=O)C(=O)N[C@H]2C(=O)N[C@H]3C(=O)N[C@H](C(=O)N[C@H](C(=O)O)c4cc(O)cc(O)c4-c4cc3ccc4O)[C@H](O)c3ccc(c(Cl)c3)Oc3cc2cc(c3O[C@@H]2O[C@H](CO)[C@@H](O)[C@H](O)[C@H]2O[C@H]2C[C@](C)(N)[C@H](O)[C@H](C)O2)Oc2ccc(cc2Cl)[C@H]1O [Vancomycin]
numeric_result: 0.117

====

System: S. aureus DSM 20231
test_summary: Bliss interaction score (quartile over a dose matrix) (fitness difference); higher = more antagonism (negative = synergy)
endpoint_label: Bliss interaction score

molecule: CC[C@H]1OC(=O)[C@H](C)[C@@H](O[C@H]2C[C@@](C)(OC)[C@@H](O)[C@H](C)O2)[C@H](C)[C@@H](O[C@@H]2O[C@H](C)C[C@H](N(C)C)[C@H]2O)[C@](C)(OC)C[C@@H](C)C(=O)[C@H](C)[C@@H](O)[C@]1(C)O [Clarithromycin] + Cn1nnc(-c2ccc(-c3ccc(N4C[C@H](CO)OC4=O)cc3F)cn2)n1 [Tedizolid]
tested_system: S. aureus DSM 20231
endpoint_label: Bliss interaction score
numeric_result: -0.109

molecule: COc1c(N2C[C@@H]3CCCN[C@@H]3C2)c(F)cc2c(=O)c(C(=O)O)cn(C3CC3)c12 [Moxifloxacin] + CC1=C\[C@@H](O)CC(=O)Cc2nc(co2)C(=O)N2CCC=C2C(=O)O[C@H](C(C)C)[C@H](C)/C=C/C(=O)NC\C=C\1 [Virginiamycin M1]
tested_system: S. aureus DSM 20231
endpoint_label: Bliss interaction score
numeric_result: -0.0567

molecule: CC[C@H]1OC(=O)[C@H](C)[C@@H](O[C@H]2C[C@@](C)(OC)[C@@H](O)[C@H](C)O2)[C@H](C)[C@@H](O[C@@H]2O[C@H](C)C[C@H](N(C)C)[C@H]2O)[C@](C)(OC)C[C@@H](C)C(=O)[C@H](C)[C@@H](O)[C@]1(C)O [Clarithromycin] + C[C@H]1C[C@@H]2[C@H]([C@@H](O)C[C@@]3(C)[C@H]2CC[C@]3(O)C(=O)CO)[C@@]2(C)C=CC(=O)C=C12 [Methylprednisolone]
tested_system: S. aureus DSM 20231
endpoint_label: Bliss interaction score
numeric_result: -0.275

molecule: N[C@@H]1CONC1=O [CycloserineD] + Cc1c(Cl)cccc1Nc1ccccc1C(=O)O [Tolfenamic]
tested_system: S. aureus DSM 20231
endpoint_label: Bliss interaction score
numeric_result: -0.218

molecule: O=C(N[C@H](CO)[C@H](O)c1ccc([N+](=O)[O-])cc1)C(Cl)Cl [Chloramphenicol] + COc1c(N2C[C@@H]3CCCN[C@@H]3C2)c(F)cc2c(=O)c(C(=O)O)cn(C3CC3)c12 [Moxifloxacin]
tested_system: S. aureus DSM 20231
endpoint_label: Bliss interaction score
numeric_result: 0.148

molecule: CCC[C@@H]1C[C@@H](C(=O)N[C@@H]([C@H]2O[C@H](SC)[C@H](O)[C@@H](O)[C@H]2O)[C@H](C)Cl)N(C)C1 [Clindamycin] + CC(=O)NC[C@H]1CN(c2ccc(N3CCOCC3)c(F)c2)C(=O)O1 [Linezolid]
tested_system: S. aureus DSM 20231
endpoint_label: Bliss interaction score
numeric_result: 0.027

molecule: CCC[C@@H]1C[C@@H](C(=O)N[C@@H]([C@H]2O[C@H](SC)[C@H](O)[C@@H](O)[C@H]2O)[C@H](C)Cl)N(C)C1 [Clindamycin] + CN(C)[C@@H]1C(O)=C(C(N)=O)C(=O)[C@@]2(O)C(O)=C3C(=O)c4c(O)ccc(Cl)c4[C@@](C)(O)[C@H]3C[C@@H]12 [Clortetracycline]
tested_system: S. aureus DSM 20231
endpoint_label: Bliss interaction score
numeric_result: -0.0617

====

System: S. aureus Newman
test_summary: Bliss interaction score (quartile over a dose matrix) (fitness difference); higher = more antagonism (negative = synergy)
The following compounds are shown together with reported Bliss interaction score values.

compound: O=C(O[C@@H]1Cc2c(O)cc(O)cc2O[C@@H]1c1cc(O)c(O)c(O)c1)c1cc(O)c(O)c(O)c1 [EGCG] + Cc1cc(NS(=O)(=O)c2ccc(N)cc2)no1 [Sulfamethoxazol]
Bliss interaction score: 0.0456
//
compound: CCC[C@@H]1C[C@@H](C(=O)N[C@@H]([C@H]2O[C@H](SC)[C@H](O)[C@@H](O)[C@H]2O)[C@@H](C)O)N(C)C1 [Lincomycin] + CC1(C)S[C@@H]2[C@H](NC(=O)Cc3ccccc3)C(=O)N2[C@H]1C(=O)O [PenicillinG]
Bliss interaction score: 0.0805
//
compound: O=C(N[C@H](CO)[C@H](O)c1ccc([N+](=O)[O-])cc1)C(Cl)Cl [Chloramphenicol] + Clc1ccc(COC(Cn2ccnc2)c2ccc(Cl)cc2Cl)c(Cl)c1 [Miconazole]
Bliss interaction score: 0.0868
//
compound: CC(=O)OC[C@H]1O[C@@H]([S-])[C@H](OC(C)=O)[C@@H](OC(C)=O)[C@@H]1OC(C)=O.CCP(CC)CC.[Au+] [Auranofin] + CO[C@@H]1[C@@H](OC(N)=O)[C@@H](O)[C@H](Oc2ccc3c(O)c(NC(=O)c4ccc(O)c(CC=C(C)C)c4)c(=O)oc3c2C)OC1(C)C [Novobiocin]
Bliss interaction score: 0.105

====

Each entry below carries its reported Bliss interaction score.
Tested on: S. aureus Newman
test_summary: Bliss interaction score (quartile over a dose matrix) (fitness difference); higher = more antagonism (negative = synergy)

molecule: O=C(O[C@@H]1Cc2c(O)cc(O)cc2O[C@@H]1c1cc(O)c(O)c(O)c1)c1cc(O)c(O)c(O)c1 [EGCG] + Oc1cc(Cl)ccc1Oc1ccc(Cl)cc1Cl [Triclosan]
Bliss interaction score: 0.0222
--
molecule: CC(=O)OC[C@H]1O[C@@H]([S-])[C@H](OC(C)=O)[C@@H](OC(C)=O)[C@@H]1OC(C)=O.CCP(CC)CC.[Au+] [Auranofin] + CCC[C@@H]1C[C@@H](C(=O)N[C@@H]([C@H]2O[C@H](SC)[C@H](O)[C@@H](O)[C@H]2O)[C@@H](C)O)N(C)C1 [Lincomycin]
Bliss interaction score: 0.0853

====

In this section, each of the compounds is paired with its reported Bliss interaction score.
System: S. aureus DSM 20231
test_summary: Bliss interaction score (quartile over a dose matrix) (fitness difference); higher = more antagonism (negative = synergy)
endpoint_label: Bliss interaction score

compound: CCC[C@@H]1C[C@@H](C(=O)N[C@@H]([C@H]2O[C@H](SC)[C@H](O)[C@@H](O)[C@H]2O)[C@H](C)Cl)N(C)C1 [Clindamycin] + Cc1cc(NS(=O)(=O)c2ccc(N)cc2)no1 [Sulfamethoxazol]
tested_system: S. aureus DSM 20231
numeric_result: -0.0287

compound: C[C@@H](O)[C@H]1C(=O)N2C(C(=O)O)=C(SCCNC=N)C[C@H]12 [Imipenem] + CO[C@@H]1[C@@H](OC(N)=O)[C@@H](O)[C@H](Oc2ccc3c(O)c(NC(=O)c4ccc(O)c(CC=C(C)C)c4)c(=O)oc3c2C)OC1(C)C [Novobiocin]
tested_system: S. aureus DSM 20231
numeric_result: 0.0228

compound: O=C1CN(/N=C/c2ccc([N+](=O)[O-])o2)C(=O)N1 [Nitrofurantoin] + Cn1nnc(-c2ccc(-c3ccc(N4C[C@H](CO)OC4=O)cc3F)cn2)n1 [Tedizolid]
tested_system: S. aureus DSM 20231
numeric_result: -0.0543

compound: CC(=O)OC[C@H]1O[C@@H]([S-])[C@H](OC(C)=O)[C@@H](OC(C)=O)[C@@H]1OC(C)=O.CCP(CC)CC.[Au+] [Auranofin] + CC[C@H]1OC(=O)[C@H](C)[C@@H](O[C@H]2C[C@@](C)(OC)[C@@H](O)[C@H](C)O2)[C@H](C)[C@@H](O[C@@H]2O[C@H](C)C[C@H](N(C)C)[C@H]2O)[C@](C)(O)C[C@@H](C)CN(C)[C@H](C)[C@@H](O)[C@]1(C)O [Azithromycin]
tested_system: S. aureus DSM 20231
numeric_result: 0.0282

compound: CC[C@H]1OC(=O)[C@H](C)[C@@H](O[C@H]2C[C@@](C)(OC)[C@@H](O)[C@H](C)O2)[C@H](C)[C@@H](O[C@@H]2O[C@H](C)C[C@H](N(C)C)[C@H]2O)[C@](C)(OC)C[C@@H](C)C(=O)[C@H](C)[C@@H](O)[C@]1(C)O [Clarithromycin] + CCN(CC)CCOC(=O)c1ccc(N)cc1 [Procaine]
tested_system: S. aureus DSM 20231
numeric_result: 0.0493

compound: CCC[C@@H]1C[C@@H](C(=O)N[C@@H]([C@H]2O[C@H](SC)[C@H](O)[C@@H](O)[C@H]2O)[C@H](C)Cl)N(C)C1 [Clindamycin] + C[C@@H](O)[C@H]1C(=O)N2C(C(=O)O)=C(SCCNC=N)C[C@H]12 [Imipenem]
tested_system: S. aureus DSM 20231
numeric_result: 0.0276

compound: CCC[C@@H]1C[C@@H](C(=O)N[C@@H]([C@H]2O[C@H](SC)[C@H](O)[C@@H](O)[C@H]2O)[C@@H](C)O)N(C)C1 [Lincomycin] + CN(N=O)C(=O)N[C@@H](C=O)[C@@H](O)[C@H](O)[C@H](O)CO [Streptozotocin]
tested_system: S. aureus DSM 20231
numeric_result: 0.0558

compound: C/C(=C\C(=O)OCCCCCCCCC(=O)O)C[C@@H]1OC[C@H](C[C@@H]2O[C@H]2[C@@H](C)[C@H](C)O)[C@@H](O)[C@H]1O [Pseudomonic acid] + CN(N=O)C(=O)N[C@@H](C=O)[C@@H](O)[C@H](O)[C@H](O)CO [Streptozotocin]
tested_system: S. aureus DSM 20231
numeric_result: -0.011

compound: CCc1oc2ccccc2c1C(=O)c1cc(Br)c(O)c(Br)c1 [Benzbromarone] + O=C(O[C@@H]1Cc2c(O)cc(O)cc2O[C@@H]1c1cc(O)c(O)c(O)c1)c1cc(O)c(O)c(O)c1
tested_system: S. aureus DSM 20231
numeric_result: -0.139

compound: CC(=O)OC[C@H]1O[C@@H]([S-])[C@H](OC(C)=O)[C@@H](OC(C)=O)[C@@H]1OC(C)=O.CCP(CC)CC.[Au+] [Auranofin] + C[C@@H](O)[C@H]1C(=O)N2C(C(=O)O)=C(SCCNC=N)C[C@H]12 [Imipenem]
tested_system: S. aureus DSM 20231
numeric_result: -0.0179

compound: O=C(O[C@@H]1Cc2c(O)cc(O)cc2O[C@@H]1c1cc(O)c(O)c(O)c1)c1cc(O)c(O)c(O)c1 [EGCG] + Clc1ccc(COC(Cn2ccnc2)c2ccc(Cl)cc2Cl)c(Cl)c1 [Miconazole]
tested_system: S. aureus DSM 20231
numeric_result: 0.278

compound: O=C(N[C@H](CO)[C@H](O)c1ccc([N+](=O)[O-])cc1)C(Cl)Cl [Chloramphenicol] + C[C@@H]1O[C@@H]1P(=O)(O)O [Fosfomycin]
tested_system: S. aureus DSM 20231
numeric_result: 0.0517

compound: COc1c(N2C[C@@H]3CCCN[C@@H]3C2)c(F)cc2c(=O)c(C(=O)O)cn(C3CC3)c12 [Moxifloxacin] + Cc1onc(-c2ccccc2)c1C(=O)N[C@@H]1C(=O)N2[C@@H]1SC(C)(C)[C@@H]2C(=O)O [Oxacillin]
tested_system: S. aureus DSM 20231
numeric_result: 0.0441

compound: CCC[C@@H]1C[C@@H](C(=O)N[C@@H]([C@H]2O[C@H](SC)[C@H](O)[C@@H](O)[C@H]2O)[C@@H](C)O)N(C)C1 [Lincomycin] + CO[C@@H]1[C@@H](OC(N)=O)[C@@H](O)[C@H](Oc2ccc3c(O)c(NC(=O)c4ccc(O)c(CC=C(C)C)c4)c(=O)oc3c2C)OC1(C)C [Novobiocin]
tested_system: S. aureus DSM 20231
numeric_result: 0.104

compound: CC(=O)OC[C@H]1O[C@@H]([S-])[C@H](OC(C)=O)[C@@H](OC(C)=O)[C@@H]1OC(C)=O.CCP(CC)CC.[Au+] [Auranofin] + CO[C@H]1/C=C/O[C@@]2(C)Oc3c(C)c(O)c4c(O)c(c(/C=N/N5CCN(C)CC5)c(O)c4c3C2=O)NC(=O)/C(C)=C\C=C\[C@H](C)[C@H](O)[C@@H](C)[C@@H](O)[C@@H](C)[C@H](OC(C)=O)[C@@H]1C [Rifampicin]
tested_system: S. aureus DSM 20231
numeric_result: 0.0331
